tested on: primary human T-cells; experiment: Proliferation assay after 5 days (CellTiter-Glo, CD3 stimulation; PBS counter screen); format: cell-based; details: Homo sapiens, T-cell, 120 h, CD3 stimulation, 5 days; normalized to reference compound A1 as stimulator control = 100%, DMSO neutral control; read-out: Emax proliferation (% activation)
Measured Emax values are reported for all entries that follow.
Enter your answer as a number in %; do not include the unit.

For orientation, consider the following solved cases.
N[C@H]1CS(=O)(=O)c2cc(F)c(-c3nnc(-c4ccc(F)cc4)o3)cc2N(Cc2ccc(Cl)cc2)C1=O: 112
N[C@H]1CS(=O)(=O)c2ccc(-c3nnc(N4CC5(C4)CC(F)(F)C5)o3)cc2N(Cc2ccc(Cl)cc2)C1=O: 93
CC(C)Oc1ccc(CN2C(=O)[C@@H](N)CS(=O)(=O)c3cc(F)c(-c4noc(C5CN(C)CC(F)(F)C5)n4)cc32)cn1 (stereo partly shown): 151
CC(C)(C)c1nnc(-c2cc3c(cc2F)S(=O)(=O)C[C@H](N)C(=O)N3Cc2ccc(OCC(F)F)cc2)o1: 119
CC1(c2nnc(-c3cc4c(cc3F)S(=O)(=O)C[C@H](N)C(=O)N4Cc3ccc(Cl)cc3)o2)CC1: 106
COC(=O)N1CCC(c2nnc(-c3cc4c(cc3F)S(=O)(=O)C[C@H](N)C(=O)N4Cc3ccc(Cl)cc3)o2)CC1: 100

Q: Input `CC(C)(C)n1nnc(-c2ccc3c(c2)N(Cc2ccc(OC(F)(F)F)cc2)C(=O)[C@@H](N)CS3(=O)=O)n1` , output reported Emax.
A: 97

----------
system: primary human T-cells; test: Proliferation assay after 5 days (CellTiter-Glo, CD3 stimulation; PBS counter screen); assay type: cell-based; conditions: Homo sapiens, T-cell, 120 h, CD3 stimulation, 5 days; normalized to reference compound A1 as stimulator control = 100%, DMSO neutral control; read-out: Emax proliferation (% activation)
Measured Emax values are reported for all entries that follow.
Enter your answer as a number in %; do not include the unit.

N[C@H]1CS(=O)(=O)c2cc(F)c(-c3nnc(CC4CC(F)(F)C4)o3)cc2N(Cc2ccc(Cl)cc2)C1=O [Example 77]: 183
CN1CCC(F)(F)C(c2nnc(-c3cc4c(cc3F)S(=O)(=O)C[C@H](N)C(=O)N4Cc3ccc(Cl)cc3)o2)C1 (some centres unmarked) [Example 158]: 141
CC(N)(c1nnc(-c2cc3c(cc2F)S(=O)(=O)C[C@H](N)C(=O)N3Cc2ccc(Cl)cc2)o1)C(F)(F)F (some centres unmarked) [Example 127]: 110
N[C@H]1CS(=O)(=O)c2cc(F)c(-c3nnc(N4CCC(F)(F)C(CO)C4)o3)cc2N(Cc2ccc(Cl)cc2)C1=O (some centres unmarked) [Example 485]: 98
CC(C)(C)c1nnc(-c2cc3c(cc2F)S(=O)(=O)C[C@H](N)C(=O)N3Cc2ccc(F)cc2)o1 [Example 231]: 114

Q: Input CC(C)(C)c1nc(-c2cc3c(cc2F)S(=O)(=O)C[C@H](N)C(=O)N3Cc2ccc(Cl)cc2)no1 [Example 289] , output reported Emax.
A: 124

Q: Input CC(C)(CN1CCCC1=O)c1nnc(-c2cc3c(cc2F)S(=O)(=O)C[C@H](N)C(=O)N3Cc2ccc(Cl)cc2)o1 [Example 64] , output reported Emax.
A: 36

Q: Input CC(C)Oc1ccc(CN2C(=O)[C@@H](N)CS(=O)(=O)c3cc(F)c(-c4noc(C(N)C(F)(F)F)n4)cc32)cc1 (some centres unmarked) [Example 48] , output reported Emax.
A: 248

----------
test system: primary human T-cells
Measured pEC50 values are reported for all entries that follow.
Lab note — pEC50 values are minus log10 of concentrations in M.

For orientation, consider the following solved cases.
CC(C)(C)c1nnc(-c2ccc3c(c2)N(Cc2ccc(Oc4ccc(F)cc4)cc2)C(=O)[C@@H](N)CS3(=O)=O)o1: 5.68
N[C@H]1CS(=O)(=O)c2ccc(-c3nnc(CC(F)(F)F)o3)c(F)c2N(Cc2ccc(Cl)cc2)C1=O: 6.11
COCCN1CCCC(F)(c2nnc(-c3ccc4c(c3)N(Cc3ccc(Cl)cc3)C(=O)[C@@H](N)CS4(=O)=O)o2)C1 (some centres unmarked): 5.31
CC(C)Oc1ccc(CN2C(=O)[C@@H](N)CS(=O)(=O)c3cc(F)c(-c4noc(C(N)C(F)(F)F)n4)cc32)cc1 (some centres unmarked): 5.63
CC(C)(C#N)c1nnc(-c2ccc3c(c2)N(Cc2ccc(OC(F)(F)F)cc2)C(=O)[C@@H](N)CS3(=O)=O)o1: 5.87

Q: Give measured pEC50 for N[C@H]1CS(=O)(=O)c2cc(F)c(-c3nnc(C4CNCCC4(F)F)o3)cc2N(Cc2ccc(Cl)cc2)C1=O (some centres unmarked) (primary human T-cells).
A: 5.93

Q: Give measured pEC50 for `CC(C)(C)n1nnc(-c2ccc3c(c2)N(Cc2ccc(OC(F)(F)F)cc2)C(=O)[C@@H](N)CS3(=O)=O)n1` (primary human T-cells).
A: 6.46

Q: Give measured pEC50 for `CC1(C)CN(c2nnc(-c3ccc4c(c3)N(Cc3ccc(Cl)cc3)C(=O)[C@@H](N)CS4(=O)=O)o2)CCO1` (primary human T-cells).
A: 5.95

Q: Give measured pEC50 for `CC(C)(C)c1nnc(-c2ccc3c(c2)N(Cc2ccc(OCC(F)(F)F)cc2)C(=O)[C@@H](N)CS3(=O)=O)o1` (primary human T-cells).
A: 6.02

Q: Give measured pEC50 for `CC(F)(F)CNc1nnc(-c2ccc3c(c2)N(Cc2ccc(Cl)cc2)C(=O)[C@@H](N)CS3(=O)=O)o1` (primary human T-cells).
A: 5.40

Q: Give measured pEC50 for `N[C@H]1CS(=O)(=O)c2cc(F)c(-c3nnc(C(=O)N4CCC(F)(F)C4)o3)cc2N(Cc2ccc(Cl)cc2)C1=O` (primary human T-cells).
A: 5.45

Q: Give measured pEC50 for `N[C@H]1CS(=O)(=O)c2ccc(-c3nnc(N4CC5(CCCOC5)C4)o3)cc2N(Cc2ccc(Cl)cc2)C1=O` (primary human T-cells).
A: 5.88

----------
system: primary human T-cells; assay: Proliferation assay after 5 days (CellTiter-Glo, CD3 stimulation; PBS counter screen); assay type: cell-based; conditions: Homo sapiens, T-cell, 120 h, CD3 stimulation, 5 days; normalized to reference compound A1 as stimulator control = 100%, DMSO neutral control; read-out: Emax proliferation (% activation)
EXPERIMENTAL READOUT: Emax (%)
Enter your answer as a number in %; do not include the unit.

For orientation, consider the following solved cases.
N[C@H]1CS(=O)(=O)c2cc(F)c(-c3nc(COCc4ccccc4)no3)cc2N(Cc2ccc(Cl)cc2)C1=O: 80
N[C@H]1CS(=O)(=O)c2cc(F)c(-c3nnc(C4(C(F)F)CNC4)o3)cc2N(Cc2ccc(Cl)cc2)C1=O: 124
CC(C)(C)n1nnc(-c2cc3c(cc2F)S(=O)(=O)C[C@H](N)C(=O)N3Cc2ccc(OC(F)(F)F)cc2)n1: 117
N[C@H]1CS(=O)(=O)c2cc(F)c(-c3nnc(N4CC5(CCC5)C4)o3)cc2N(Cc2ccc(Cl)cc2)C1=O: 138
CC(C)(C)n1nnc(-c2cc3c(cc2F)S(=O)(=O)C[C@H](N)C(=O)N3Cc2ccc(Cl)cc2)n1: 130

Q: Give measured Emax for COC(F)(c1nc(-c2cc3c(cc2F)[S+]([O-])C[C@H](N)C(=O)N3Cc2ccc(Cl)cc2)no1)C(F)(F)F (stereo partly shown) (primary human T-cells).
A: 137

Q: Give measured Emax for `CC(C)Oc1ccc(CN2C(=O)[C@@H](N)CS(=O)(=O)c3cc(F)c(-c4noc(N5CCOC6(CC6)C5)n4)cc32)nc1` (primary human T-cells).
A: 153

----------
Assay read-out EC50; system under study: primary human T-cells.
Enter your answer as a number in nM; do not include the unit.

For orientation, consider the following solved cases.
N[C@H]1CS(=O)(=O)c2cc(F)c(-c3nnc(N4CC5(CCC5)C4)o3)cc2N(Cc2ccc(Cl)cc2)C1=O [Example 474]: 251
N[C@H]1CS(=O)(=O)c2cc(F)c(-c3noc(C4(CO)CCCO4)n3)cc2N(Cc2ccc(Oc3ccccc3)cc2)C1=O (stereo partly shown) [Example 521]: 783
CC1(c2nnc(-c3cc4c(cc3F)S(=O)(=O)C[C@H](N)C(=O)N4Cc3ccc(Cl)cc3)o2)CCNCC1 [Example 161]: 1150

Q: Give measured EC50 for CC(C)(C)c1cn(-c2cc3c(cc2F)S(=O)(=O)C[C@H](N)C(=O)N3Cc2ccc(Cl)cc2)nn1 [Example 5] (primary human T-cells).
A: 991

----------
test system: primary human T-cells; test: Proliferation assay after 5 days (CellTiter-Glo, CD3 stimulation; PBS counter screen); type: cell-based; conditions: Homo sapiens, T-cell, 120 h, CD3 stimulation, 5 days; normalized to reference compound A1 as stimulator control = 100%, DMSO neutral control; read-out: Emax proliferation (% activation)
Measured Emax values are reported for all entries that follow.
Enter your answer as a number in %; do not include the unit.

For orientation, consider the following solved cases.
CC(=O)N[C@H]1CS(=O)(=O)c2cc(F)c(-c3nnc(C(C)(C)C)o3)cc2N(Cc2ccc(Cl)cc2)C1=O: 124
CC(C)Nc1nnc(-c2cc3c(cc2F)S(=O)(=O)C[C@H](N)C(=O)N3Cc2ccc(Cl)cc2)o1: 111
CC(C)(C)c1nnc(-c2ccc3c(c2)N(Cc2ccc(Oc4ccc(C(F)(F)F)cn4)cc2)C(=O)[C@@H](N)CS3(=O)=O)o1: 110
CCc1cnn(-c2cc3c(cc2F)S(=O)(=O)C[C@H](N)C(=O)N3Cc2ccc(Cl)cc2)c1: 30
NC(Cn1nnc(-c2cc3c(cc2F)S(=O)(=O)C[C@H](N)C(=O)N3Cc2ccc(Cl)cc2)n1)C(F)(F)F (stereo partly drawn): 131

Q: Input `CC1(c2nnc(-c3cc4c(cc3F)S(=O)(=O)C[C@H](N)C(=O)N4Cc3ccc(Cl)cc3)o2)CNC1` , output reported Emax.
A: 65

Q: Input CC(O)(CNc1nnc(-c2cc3c(cc2F)S(=O)(=O)C[C@H](N)C(=O)N3Cc2ccc(Cl)cc2)o1)C(F)(F)F (stereo partly drawn) , output reported Emax.
A: 51
